System: RARg:RXRa (NR concentration 270 nM, RXRa partner concentration 90 nM)
Measurement notes: PBM binding z-score (relative to random genomic background probes); higher = stronger binding; sequences stand for … in GC…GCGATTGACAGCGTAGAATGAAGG
Reported PBM binding z-score by item:

Query sequence: TCTTGTAGATCAAAGGTTAAGAGAGCCGAAGCCT
Target desc: RARg:RXRa (NR concentration 270 nM, RXRa partner concentration 90 nM)
PBM binding z-score: 1.84

Query sequence: CCTGACAGGTGAGAAGGTAACTCAGCCTCGATTA
Target desc: RARg:RXRa (NR concentration 270 nM, RXRa partner concentration 90 nM)
PBM binding z-score: 0.701

Query sequence: TCTAGTTGGTCACGGAGGTAACACACGACGGGTA
Target desc: RARg:RXRa (NR concentration 270 nM, RXRa partner concentration 90 nM)
PBM binding z-score: 1.24

###

Test system: THRa:RXRa (NR concentration 90 nM, RXRa partner concentration 90 nM)
Measurement notes: PBM binding z-score (relative to random genomic background probes); higher = stronger binding; sequences stand for … in GC…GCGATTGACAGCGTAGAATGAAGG
Reported property: PBM binding z-score

Query sequence: ATCTCTAGGTACCCAAGTTCAGTGAATGCCGAAC
Meas value: 0.968

Query sequence: TGTTGTAGATCAGCAGGTTAAGAAAGCTGGCCAA
Meas value: -0.32

Query sequence: CCTACTGGGCCAAAATGGTCATTGATGCCGATAA
Meas value: -0.37

Query sequence: GTACCAAGGTGAATAGGTGGTTGATGAGTAGGCG
Meas value: 1.3

Query sequence: CCAGAGAGGTGAGAAGGTAACTCAGCCTCGATTA
Meas value: 1.19

Query sequence: TCGAGGAGGTTACCAATGGGGCATTCAGCTTTCT
Meas value: 1.06

Query sequence: AGAATGAGGTTATACGTGGATCAGGGAAGAAAGT
Meas value: 2.48

Query sequence: CAAACTAGGGCACAGAGGTCAAAGTCCGTGCGTA
Meas value: 3.79

Query sequence: ATCTCTAGGTAATCAAGTTCAGTGAATGCCGAAC
Meas value: 1.26

Query sequence: ACTATTAGTTGAGACGAGGGCAACCGATAGGTTG
Meas value: 2.7

Query sequence: CCTGCTGGGTCAATGGTCAGCTAAAGCAGCTCGC
Meas value: 1.26

Query sequence: TCGAGTAGGTTTGGGGCATTCAGAATGGCGTCGA
Meas value: 0.0533

Query sequence: AATACAGGGTCATCGTAGGCCAGAGTGCGCACAG
Meas value: 4.6

Query sequence: ACAGACAGGTGAGTGACGGTAACTCAGCTGGACG
Meas value: -0.128

Query sequence: TCATATAGGTAAATACTAGGTGAAAGTCCGATCT
Meas value: 1.49

Query sequence: TAGCCTAGGACAGATCGGGCCAGTATACGCTATA
Meas value: 0.511

Query sequence: CCTTACGGGTGACTCCAGGTTATAGCATCGGAGT
Meas value: 3.65

Query sequence: AATACAGGGTCACTAGGCCATAGTAGGTACGAAT
Meas value: 3.55

Query sequence: GTACGAAGGTGAATAGGTCGTTGATGAGTAGGCG
Meas value: 0.742

Query sequence: CCTACTGGGCCAGGGTCATTGATCAGTCAAAGCA
Meas value: 2.7

Query sequence: TCTTGTAGATCAAAGGTTAATAAAGCCGAAGCCT
Meas value: 1.32

Query sequence: CCTACTGGGCCATTCAGTGGTCATTGATCATATG
Meas value: -0.329

Query sequence: CTCGAAAGGTCGTGCTCAGGTGAGTCTACCAAAC
Meas value: 4.01

Query sequence: CGTCCGAGGTCAGAGAGGTCAGTGAATGCCGAGT
Meas value: 4.59

Query sequence: CCTTACGGGTCACTGACAGGTTGTAGCATTTGGA
Meas value: 2.65

Cited source: the supplement of paper PMC6555819
